Where do these numbers come from? They come from PubChem BioAssay (NCI).

- System: RXF 393 renal
- Measurement Description: NCI tumour cell line growth inhibition, 48 h
Measured Endpoint: TGI (µM)
Numeric answer only, unit µM assumed.

Example results:
- Molecule: "Cc1ccc(N=Nc2c(C)c(C#N)c(=S)n(C3OC(CO)C(O)C(O)C3O)c2C)cc1 (stereo not drawn)"
  Unit Abbreviation: "µM"
  TGI: 93.6
- Molecule: "CC(C)(C)c1ccc(O)c(CN(Cc2cc(C(C)(C)C)ccc2O)c2ccccc2)c1"
  Unit Abbreviation: "µM"
  TGI: 27.5
- Molecule: "Cc1[nH]c2ccccc2c1C1Cc2ccccc2N1C(=O)/C(Cl)=C/c1ccccc1 (stereo not drawn)"
  Unit Abbreviation: "µM"
  TGI: 89

Please turn your attention to the following entry.
stdin: Tell us which TGI value is on record for `N#Cc1nc(C2=C(Cl)c3ccccc3OC2)[nH]c1C#N`
stdout: 38.8
